biological target: UniProt:Q12809; experiment: hERG channel inhibition in selectivity testing, SAR follow-up, selectivity assay for TASK1 inhibitor project, FluxOR thallium flux, concentration-response, CHO cells (AID 652194); conditions: hERG-expressing cells, FluxOR thallium flux fluorescence; at 30 µM (top of the series)
Sequence (Q12809 whole entry, looked up): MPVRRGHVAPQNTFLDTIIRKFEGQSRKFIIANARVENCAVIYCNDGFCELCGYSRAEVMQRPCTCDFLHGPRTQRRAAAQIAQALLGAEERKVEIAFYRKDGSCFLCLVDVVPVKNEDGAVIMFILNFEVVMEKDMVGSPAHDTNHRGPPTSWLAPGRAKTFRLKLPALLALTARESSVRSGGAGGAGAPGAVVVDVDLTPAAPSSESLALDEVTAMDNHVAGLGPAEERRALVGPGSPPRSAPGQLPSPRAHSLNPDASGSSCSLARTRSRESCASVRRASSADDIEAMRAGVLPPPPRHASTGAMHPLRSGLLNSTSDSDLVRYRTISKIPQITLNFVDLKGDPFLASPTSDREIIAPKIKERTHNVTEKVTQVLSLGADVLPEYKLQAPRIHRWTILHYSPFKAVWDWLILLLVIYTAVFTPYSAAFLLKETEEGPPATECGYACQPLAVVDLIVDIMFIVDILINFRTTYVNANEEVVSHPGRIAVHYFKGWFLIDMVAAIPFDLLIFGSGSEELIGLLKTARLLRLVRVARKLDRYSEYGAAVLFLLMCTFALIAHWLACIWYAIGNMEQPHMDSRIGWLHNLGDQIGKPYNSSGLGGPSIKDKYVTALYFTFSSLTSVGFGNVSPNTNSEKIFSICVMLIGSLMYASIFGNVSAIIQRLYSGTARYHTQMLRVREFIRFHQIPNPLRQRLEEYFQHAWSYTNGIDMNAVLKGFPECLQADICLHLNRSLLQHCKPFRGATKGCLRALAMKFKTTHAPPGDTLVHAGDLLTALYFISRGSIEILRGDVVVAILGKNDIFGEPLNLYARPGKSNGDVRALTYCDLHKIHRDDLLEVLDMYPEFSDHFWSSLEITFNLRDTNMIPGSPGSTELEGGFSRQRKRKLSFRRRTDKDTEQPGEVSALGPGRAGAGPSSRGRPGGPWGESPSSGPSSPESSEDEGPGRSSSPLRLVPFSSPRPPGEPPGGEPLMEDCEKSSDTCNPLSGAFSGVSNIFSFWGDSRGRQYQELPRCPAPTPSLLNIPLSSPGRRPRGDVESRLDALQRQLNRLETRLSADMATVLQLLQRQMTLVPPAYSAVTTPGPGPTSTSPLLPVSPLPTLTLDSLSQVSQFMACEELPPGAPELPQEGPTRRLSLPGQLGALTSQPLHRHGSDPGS
Calls of active or inactive are those of the source.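 The calls were made as follows: active = hERG flux cut by over 30% at some tested dose, with a fitted dose response curve; inactive = no hERG inhibition at any dose or no curve.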
measured quantity: flux ratio, lower = inhibition

> print(dat)
                                   compound    study.system               measured.quantity    result
1  Cc1cccc(C(=O)Nc2cccc(NC(=O)c3ccc(Cl)cc3)c2)c1  UniProt:Q12809  flux ratio, lower = inhibition  inactive
2  COc1ccccc1C(=O)Nc1cccc(NC(=O)c2cccc(C)c2)c1  UniProt:Q12809  flux ratio, lower = inhibition  inactive
3  CCOc1ccccc1C(=O)Nc1cccc(NC(=O)c2cccc(C)c2)c1  UniProt:Q12809  flux ratio, lower = inhibition  inactive
4  Cc1cccc(C(=O)Nc2cccc(NC(=O)c3cccc(C(F)(F)F)c3)c2)c1  UniProt:Q12809  flux ratio, lower = inhibition  inactive

What measured flux ratio, lower = inhibition goes with `CCOc1ccccc1NC(=O)c1cccc(NC(=O)c2ccccc2Cl)c1` ? inactive

Same question for `Cc1ccccc1C(=O)Nc1cccc(NC(=O)c2ccccc2)c1` please. inactive

Same question for `CCOc1ccccc1C(=O)Nc1cccc(NC(=O)C2CCCC2)c1` please. inactive

Same question for `CCOc1ccccc1NC(=O)c1cccc(NC(=O)C2CC2)c1` please. inactive

Same question for CCOc1ccccc1NC(=O)c1cccc(NC(=O)C2CCCO2)c1 (stereo not drawn) please. inactive
